Source listed as ChEMBL document CHEMBL1687920.

Molecular target: Polyunsaturated fatty acid 5-lipoxygenase (Homo sapiens)
Sequence (P09917 whole entry): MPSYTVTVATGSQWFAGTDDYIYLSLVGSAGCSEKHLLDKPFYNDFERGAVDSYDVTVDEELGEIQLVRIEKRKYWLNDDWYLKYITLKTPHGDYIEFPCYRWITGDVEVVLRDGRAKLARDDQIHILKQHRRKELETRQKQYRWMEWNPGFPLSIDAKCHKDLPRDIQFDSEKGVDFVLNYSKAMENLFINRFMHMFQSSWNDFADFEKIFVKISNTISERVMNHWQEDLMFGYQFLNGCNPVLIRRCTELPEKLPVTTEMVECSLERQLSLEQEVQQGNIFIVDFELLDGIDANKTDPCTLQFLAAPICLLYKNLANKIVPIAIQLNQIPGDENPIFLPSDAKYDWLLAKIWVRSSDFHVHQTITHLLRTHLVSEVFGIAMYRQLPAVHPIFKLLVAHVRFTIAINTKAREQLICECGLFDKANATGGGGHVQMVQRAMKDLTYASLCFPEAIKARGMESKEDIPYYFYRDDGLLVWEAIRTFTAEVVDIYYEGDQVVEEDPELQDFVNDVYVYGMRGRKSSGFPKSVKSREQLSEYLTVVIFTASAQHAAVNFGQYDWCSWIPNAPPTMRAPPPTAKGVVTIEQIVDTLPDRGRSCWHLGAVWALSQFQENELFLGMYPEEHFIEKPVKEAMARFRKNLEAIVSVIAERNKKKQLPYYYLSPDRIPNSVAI
Assay: Inhibition of human recombinant 5-lipoxygenase expressed in Escherichia coli MV1190 by cell free assay
Entries and their IC50
Write the value in µM as a bare number.

[[record]]
smilesnotation = "O=C(O)c1ccc(S(=O)(=O)n2cc(-c3ccc(-c4ccccc4COc4cccc5ccccc45)cc3)nn2)cc1"
measurename = "IC50"
unit = "µM"
valuereported = 0.8


API: the following record is the query input.
Quote IC50 reported for CN(C)c1cccc2c(S(=O)(=O)Nc3ccc(-c4ccc(-c5cn(CCCc6ccccc6)nn5)cc4)cc3)cccc12 please.
4.1
